Data origin, for the record: patent US9434734B2

MEASUREMENT_LABEL: melting point

The examples below pair each entry with its known result.
>  <COMPOUND>
Cc1[nH]ncc1-c1ccc2c(=O)n(C)c3cc(C4CCOCC4)nn3c2c1 [Example 92]

>  <VALUE_OBSERVED>
223 to 229 °C

$$$$
>  <COMPOUND>
CCn1c(=O)c2ccc(-c3cc(C)nc(C)c3)cc2n2nc(CCOC)cc12.Cl

>  <VALUE_OBSERVED>
173 to 180 °C

$$$$
>  <COMPOUND>
Cc1cc(-c2ccc3c(=O)n(C)c4cc(-c5cnn(C)c5)nn4c3c2)cc(C)n1.Cl [Example 130]

>  <VALUE_OBSERVED>
> 250 °C

$$$$
>  <COMPOUND>
Cc1nc(N)cnc1-c1ccc2c(=O)n(C)c3cc(-c4ccccc4)nn3c2c1.Cl [Example 32]

>  <VALUE_OBSERVED>
188 to 189 °C

$$$$

Consider the record given below.
Please look up its melting point: CCc1cc2n(C)c(=O)c3ccc(-c4ccc(N)nc4)cc3n2n1.Cl [Example 49]
> 250 °C

====

target: human mGluR2 (hmGluR2) transiently over-expressed in HEK-293 cells (Homo sapiens, UniProt Q14416); construct: expressed in transfected cells; host or cells: HEK-293 cells, transient co-transfection by electroporation; experiment: Human mGluR2 negative allosteric modulator evaluation using Ca++ functional assay (agonist and NAM activity); assay type: cell-based; settings: hmGluR2 in HEK-293 cells, EC80 glutamate, Fluo4AM calcium readout; read-out: mGluR2 negative allosteric modulator activity IC50
Sequence (Q14416 19-872): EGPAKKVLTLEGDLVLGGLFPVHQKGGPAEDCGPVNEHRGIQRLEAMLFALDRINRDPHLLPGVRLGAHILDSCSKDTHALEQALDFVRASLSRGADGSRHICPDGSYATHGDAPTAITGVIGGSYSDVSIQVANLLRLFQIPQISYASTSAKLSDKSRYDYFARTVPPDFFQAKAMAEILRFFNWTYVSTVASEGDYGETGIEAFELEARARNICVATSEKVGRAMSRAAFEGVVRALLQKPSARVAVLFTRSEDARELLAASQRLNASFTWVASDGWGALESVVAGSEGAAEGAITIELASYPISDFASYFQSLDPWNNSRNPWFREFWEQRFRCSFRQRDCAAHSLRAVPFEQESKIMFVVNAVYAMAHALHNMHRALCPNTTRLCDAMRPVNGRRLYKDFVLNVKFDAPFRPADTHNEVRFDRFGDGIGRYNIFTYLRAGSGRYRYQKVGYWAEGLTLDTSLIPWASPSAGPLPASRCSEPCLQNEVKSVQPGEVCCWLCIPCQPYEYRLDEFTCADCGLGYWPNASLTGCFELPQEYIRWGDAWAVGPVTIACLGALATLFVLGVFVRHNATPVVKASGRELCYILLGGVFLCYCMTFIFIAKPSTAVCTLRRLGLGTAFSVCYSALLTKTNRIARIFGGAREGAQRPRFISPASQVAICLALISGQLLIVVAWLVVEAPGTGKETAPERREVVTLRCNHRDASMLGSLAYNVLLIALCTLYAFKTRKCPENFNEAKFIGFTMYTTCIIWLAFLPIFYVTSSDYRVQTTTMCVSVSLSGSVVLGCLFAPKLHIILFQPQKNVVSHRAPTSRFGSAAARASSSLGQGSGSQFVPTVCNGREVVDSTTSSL
pIC50: −log10 of the molar value.
MEASUREMENT_LABEL: pIC50

Look up pIC50 for this compound: `Cc1cc(-c2ccc3c(=O)n(CC(F)F)c4cc(C5CCOCC5)nn4c3c2)cc(C)n1.Cl`
> 6.00

Any idea what its pIC50 is? The compound is `Cn1c(=O)c2ccc(-c3cccc(S(=O)(=O)NC(C)(C)CO)c3)cc2n2nc(C3CCOCC3)cc12`
> 6.00

Entry under review: `Cl.Nc1ccc(-c2ccc3c(=O)n(CC(F)F)c4cc(C5CCOCC5)nn4c3c2)cn1` . Reported pIC50?
> 6.00

Looking for the measured pIC50 of `Cc1ncccc1-c1ccc2c(=O)n(C)c3cc(-c4ccnc(C(F)(F)F)c4)nn3c2c1.Cl` , can you help?
> 6.00

So what does the record say about pIC50 for `Cl.Cn1c(=O)c2ccc(-c3ccc(N)nc3)cc2n2nc(C3CC3)cc12` ?
> 6.00

Look up pIC50 for this compound: `Cc1n[nH]cc1-c1ccc2c(=O)n(C)c3cc(-c4ccccc4)nn3c2c1`
> 6.00

Entry `Cc1cc(-c2cc3n(C)c(=O)c4ccc(-c5c(C)n[nH]c5C)cc4n3n2)cc(C)n1.Cl` : reported pIC50 = ?
> 6.00

Name the recorded pIC50 for `Cn1c(=O)c2ccc(-c3cnco3)cc2n2nc(-c3ccccc3)cc12` .
> 6.00

====

MEASUREMENT_LABEL: melting point

Below: 3 molecules and their reported melting point.
>  <SMILES_NOTATION>
Cc1ncccc1-c1ccc2c(=O)n(C)c3cc(-c4cnn(C)c4)nn3c2c1.Cl

>  <melting point>
169 to 187 °C

$$$$
>  <SMILES_NOTATION>
Cl.Cn1cc(-c2cc3n(C)c(=O)c4ccc(-c5ccncc5)cc4n3n2)cn1

>  <melting point>
> 250 °C

$$$$
>  <SMILES_NOTATION>
Cl.Cn1c(=O)c2ccc(-c3ccc(N)nc3)cc2n2nc(C3CCCCC3)cc12

>  <melting point>
194 to 197 °C

$$$$

Attention now shifts to the item below.
State the recorded melting point for this entry: `Cc1cc(-c2cc3n(C)c(=O)c4ccc(-c5ccccc5)cc4n3n2)cc(C)n1.Cl`
> 250 °C

====

MEASUREMENT_LABEL: melting point

>  <SMILES_NOTATION>
CCCn1c(=O)c2ccc(-c3ccc(N)nc3)cc2n2nc(CCOC)cc12.Cl

>  <MEASUREMENT_LABEL>
melting point

>  <VALUE_OBSERVED>
96 to 102 °C

$$$$

Now for another entry.
Need melting point of `Cl.Nc1ccc(-c2ccc3c(=O)n(CC(F)F)c4cc(-c5ccccc5)nn4c3c2)cn1` , thanks.
> 250 °C

====

Structures can show the parent of a compound that is named as a salt.
Recorded melting point by entry

Which melting point value is on record for Cl.Cn1c(=O)c2ccc(-c3ccc(N)nc3)cc2n2nc(-c3ccnc(C(F)(F)F)c3)cc12 [Example 136] ?
> 250 °C

What measured melting point goes with Cc1cc(-c2cc3n(C)c(=O)c4ccc(-c5c[nH]nc5C)cc4n3n2)cc(C)n1.Cl [Example 121] ?
> 250 °C

Returns the measured melting point for the input compound. Input: Cc1cc(-c2cc3n(C)c(=O)c4ccc(-c5cccnc5C)cc4n3n2)ccn1 (as salt: salt) [Example 132]
> 250 °C

Any idea what melting point was measured for Cn1c(=O)c2ccc(-c3ccc(F)cc3)cc2n2nc(-c3ccccc3)cc12 [Example 12] ?
178 to 180 °C

Record request: melting point value, item COCc1cccc(-c2ccc3c(=O)n(C)c4cc(-c5ccccc5)nn4c3c2)c1 [Example 9]
132 to 134 °C

====

molecular target: human mGluR2 (hmGluR2) transiently over-expressed in HEK-293 cells (Homo sapiens); construct: expressed in transfected cells; host or cells: HEK-293 cells, transient co-transfection by electroporation; test: Human mGluR2 negative allosteric modulator evaluation using Ca++ functional assay (agonist and NAM activity); type: cell-based; conditions: N-methylated compounds, statement in description; read-out: IC50 for mGluR2
MEASUREMENT_LABEL: IC50

Checklist item: IC50 tested on human mGluR2 (hmGluR2) transiently over-expressed in HEK-293 cells (Homo sapiens), entry `CN(C)S(=O)(=O)c1cccc(-c2ccc3c(=O)n(C)c4cc(-c5ccccc5)nn4c3c2)c1` , value?
< 30 nM

====

Target: human mGluR2 (hmGluR2) transiently over-expressed in HEK-293 cells (Homo sapiens, UniProt Q14416)
Construct: expressed in transfected cells; host or cells: HEK-293 cells, transient co-transfection by electroporation
Assay: Human mGluR2 negative allosteric modulator evaluation using Ca++ functional assay (agonist and NAM activity)
Assay type: cell-based
Details: hmGluR2 in HEK-293 cells, EC80 glutamate, Fluo4AM calcium readout; read-out: mGluR2 negative allosteric modulator activity IC50
Protocol: Human mGluR2 Negative Allosteric Modulator Evaluation Using Ca^++ Functional Assay […] Receptor activity was detected by changes in intracellular calcium measured using the fluorescent Ca^2+ sensitive dye, Fluo4AM (Molecular Probes). […] Agonist and negative allosteric modulator activities of compounds were consecutively evaluated on the same cells plate. […] Then, the cells were stimulated by an EC80 glutamate concentration and fluorescence was recorded for additional 60 s. […]
IC50 overview

# example entries with known answers
>  <SMILES_NOTATION>
Cl.Cn1c(=O)c2ccc(-c3cnc(N)cn3)cc2n2nc(-c3ccccc3)cc12

>  <IC50>
< 1000 nM

$$$$
>  <SMILES_NOTATION>
Cc1n[nH]c(C)c1-c1ccc2c(=O)n(C)c3cc(-c4ccnc(C(F)(F)F)c4)nn3c2c1

>  <IC50>
< 1000 nM

$$$$
>  <SMILES_NOTATION>
CCn1c(=O)c2ccc(-c3cc(C)nc(C)c3)cc2n2nc(C3CCCCCC3)cc12

>  <IC50>
< 1000 nM

$$$$
>  <SMILES_NOTATION>
Cc1cc(-c2ccc3c(=O)n(C)c4cc(C5CCOCC5)nn4c3c2)cc(C)n1.Cl

>  <IC50>
< 1000 nM

$$$$
>  <SMILES_NOTATION>
Cn1cc(-c2ccc3c(=O)n(C)c4cc(-c5ccccc5)nn4c3c2)cn1

>  <IC50>
< 1000 nM

$$$$

Fill in the blank: the reported IC50 of `COCCc1cc2n(C)c(=O)c3ccc(-c4ccc(N)nc4)cc3n2n1.Cl` is ____.
< 1000 nM

Endpoint output: IC50 of `Cn1c(=O)c2ccc(-c3cn[nH]c3)cc2n2nc(-c3ccccc3)cc12` . Value?
< 1000 nM

Consider the molecule `Cc1cc(-c2ccc3c(=O)n(C)c4cc(C5CCCC5)nn4c3c2)cc(C)n1.Cl` and give its measured IC50.
< 1000 nM

====

Where a name gives a salt, the structure may show the parent alone.
Measured melting point of individual entries

>  <MOLECULE>
Cc1cc(-c2cc3n(C)c(=O)c4ccc(-c5cnccc5C)cc4n3n2)cc(C)n1 (as salt: salt)

>  <melting point>
> 250 °C

$$$$
>  <MOLECULE>
Cc1cc(-c2ccc3c(=O)n(CC(F)(F)F)c4cc(C5CCCC5)nn4c3c2)cc(C)n1.Cl

>  <melting point>
> 250 °C

$$$$
>  <MOLECULE>
Cc1cc(-c2ccc3c(=O)n(C)c4cc(C5CCCOC5)nn4c3c2)cc(C)n1.Cl (centres unmarked)

>  <melting point>
182 to 193 °C

$$$$
>  <MOLECULE>
CCCn1c(=O)c2ccc(-c3cccc(S(=O)(=O)N(C)C)c3)cc2n2nc(-c3ccccc3)cc12

>  <melting point>
112 to 116 °C

$$$$

Reported melting point for `Cn1c(=O)c2ccc(-c3cn[nH]c3)cc2n2nc(C3CCOCC3)cc12` : what is it?
> 250 °C

Look up melting point for this molecule: `Cc1ccc(-c2ccc3c(=O)n(C)c4cc(C5CCOCC5)nn4c3c2)c(C)n1.Cl`
231 to 235 °C

// returns reported melting point for input `Cc1n[nH]cc1-c1ccc2c(=O)n(C)c3cc(C4CCCCC4)nn3c2c1`
> 250 °C

Returns the measured melting point for the input molecule. Input: `COCc1cc2n(C)c(=O)c3ccc(-c4ccc(N)nc4)cc3n2n1.Cl`
235 to 242 °C
